- Experimental Target: Albumin (Bos taurus) (UniProt P02769)
- Sequence (P02769 whole entry, looked up): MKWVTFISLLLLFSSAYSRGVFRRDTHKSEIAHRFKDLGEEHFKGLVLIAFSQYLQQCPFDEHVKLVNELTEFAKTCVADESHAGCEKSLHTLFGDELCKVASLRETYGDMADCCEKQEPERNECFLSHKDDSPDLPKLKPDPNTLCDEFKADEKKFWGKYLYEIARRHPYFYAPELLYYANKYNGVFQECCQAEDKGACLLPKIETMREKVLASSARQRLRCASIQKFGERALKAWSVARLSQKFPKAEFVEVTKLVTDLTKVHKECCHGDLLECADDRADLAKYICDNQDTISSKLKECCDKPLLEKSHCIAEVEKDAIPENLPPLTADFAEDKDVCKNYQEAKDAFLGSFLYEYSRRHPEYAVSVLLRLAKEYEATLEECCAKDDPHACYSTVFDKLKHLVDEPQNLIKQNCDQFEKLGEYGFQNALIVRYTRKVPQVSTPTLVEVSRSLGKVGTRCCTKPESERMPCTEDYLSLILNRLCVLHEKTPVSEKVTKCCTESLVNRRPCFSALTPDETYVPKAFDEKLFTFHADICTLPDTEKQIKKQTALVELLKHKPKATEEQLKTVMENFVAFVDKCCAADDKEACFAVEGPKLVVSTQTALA
- Assay Overview: bovine serum albumin binders on microarray, profiling panel, artefact control for SMM control protein annotation, biochemical, small-molecule microarray, Alexa647 label, 635/667 nm fluorescence (AID 1118);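 also: score merges 667 nm emission intensity and signal-to-noise per printed compound spot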
- Condition Description: BSA-A647 binding, fluorescence 635 nm, higher = more signal

Compound	Experimental Target	composite z-score
CC(C)(C)N1CC=CC23O[C@@H]4/C=C\CCCOC(=O)C4[C@H]2C(=O)N(CCO)[C@@H]3C1=O (stereo not given in full)	Albumin (Bos taurus) (UniProt P02769)	0.268
CCN(CC)c1ccc(N2CC=CC34O[C@@H]5C=CCCOC(=O)C5[C@H]3C(=O)N(CCCCCO)[C@@H]4C2=O)cc1 (stereo not given in full)	Albumin (Bos taurus) (UniProt P02769)	-0.515
C=CC[C@@]1(C(=O)NCC(O)CO)N=C(c2ccc(OCCCO)cc2)O[C@@H]1c1ccccc1N=[N+]=[N-] (stereo not given in full)	Albumin (Bos taurus) (UniProt P02769)	1.04
O=C1C[C@@](C(=O)NC2CC2)(c2ccc([N+](=O)[O-])cc2)[C@@H](c2ccc(CO)cc2)N1CC12CC3CC(CC(C3)C1)C2	Albumin (Bos taurus) (UniProt P02769)	0.374
CCCCC=C[C@@H](NC(=O)c1ccc(C(=O)OC)cc1)c1ccccc1	Albumin (Bos taurus) (UniProt P02769)	0.924
[N-]=[N+]=NCc1ccccc1[C@@H]1OC(c2ccc(OCCCO)cc2)=N[C@]1(Cc1ccccc1)C(=O)N1CCCCC1	Albumin (Bos taurus) (UniProt P02769)	0.763
COC(=O)[C@@]1(Cc2ccccc2)[C@H]2c3cc(C(=O)N(C)C)n(Cc4c(-c5ccccc5)noc4C)c3C[C@H]2CN1C(=O)c1ccccc1	Albumin (Bos taurus) (UniProt P02769)	1.01
O=C1O[C@H](c2ccccc2)[C@H](c2ccccc2)N2[C@H]1[C@@H](C(=O)Nc1nc3ccccc3s1)[C@]1(C(=O)Nc3ccccc31)[C@H]2c1ccc(O)cc1	Albumin (Bos taurus) (UniProt P02769)	0.164
O=C1C2C=CC(C(O)c3cccs3)N(Nc3ccccc3F)C2C(=O)N1c1ccccc1 (stereo not given)	Albumin (Bos taurus) (UniProt P02769)	0.512
CCC[C@@H]1C=C(C(=O)O)[C@H](c2ccc(C)cc2)N1S(=O)(=O)c1ccc(C)cc1	Albumin (Bos taurus) (UniProt P02769)	0.972
Cc1ccc([C@H]2C(C(=O)O)=C[C@@H](C)N2S(=O)(=O)c2ccc(C)cc2)cc1	Albumin (Bos taurus) (UniProt P02769)	0.892
COCCOC(=O)N1C(=O)[C@@]2(c3cc(C#CCNC(N)=O)ccc31)[C@H](C(=O)N1CCN(c3ncccn3)CC1)[C@H]1C(=O)O[C@H](c3ccccc3)[C@H](c3ccccc3)N1[C@@H]2c1ccccc1OCCO	Albumin (Bos taurus) (UniProt P02769)	0.413
[N-]=[N+]=NCc1ccccc1C[C@]1(C(=O)O)N=C(c2ccc(OCCCO)cc2)O[C@H]1c1ccccc1CN=[N+]=[N-]	Albumin (Bos taurus) (UniProt P02769)	0.938
C=C(C(=O)CC[C@H](OC(C)=O)c1ccc(OCCO)cc1)C(C)C	Albumin (Bos taurus) (UniProt P02769)	0.531
C=C(COC)C(=O)CC[C@@H](OC(=O)c1cccnc1)c1ccc(CO)o1	Albumin (Bos taurus) (UniProt P02769)	0.158
C=CC[C@@]1(C(=O)O)N=C(c2ccc(OCCCO)cc2)O[C@@H]1c1ccccc1N=[N+]=[N-]	Albumin (Bos taurus) (UniProt P02769)	0.851
CC(C)N1C(=O)[C@@]2(c3ccc([N+](=O)[O-])cc3)CC(=O)N(CC34CC5CC(CC(C5)C3)C4)[C@@H]2c2ccc(CO)cc21	Albumin (Bos taurus) (UniProt P02769)	-0.747
COCC(=C=CC[C@@H](O)c1ccc(CO)o1)CCO	Albumin (Bos taurus) (UniProt P02769)	-0.606
CC(C)C[C@@H]1NC(=O)[C@H]2C[C@@H](C(=O)NCCCCCNC(=O)CS)[C@@H](c3cccc(OCCO)c3)N2C1=O	Albumin (Bos taurus) (UniProt P02769)	0.258
Cc1ccc(S[C@]2(C(=O)NCC(C)C)CC(=O)N(Cc3ccccc3)[C@@H]2c2ccc(CO)cc2I)cc1	Albumin (Bos taurus) (UniProt P02769)	0.256
C#CCN(C(/C=C/c1ccccc1)CO)C(C(=O)O)c1ccccc1 (stereo not given)	Albumin (Bos taurus) (UniProt P02769)	-0.56
CCCNC(=O)[C@@]1(c2ccc([N+](=O)[O-])cc2)CC(=O)N(CC23CC4CC(CC(C4)C2)C3)[C@@H]1c1ccc(CO)cc1	Albumin (Bos taurus) (UniProt P02769)	-0.161
CCOC(=O)C1=C[C@@H](C(C)C)N(S(=O)(=O)c2ccc(C)cc2)[C@H]1c1ccc(C(C)C)cc1	Albumin (Bos taurus) (UniProt P02769)	0.822
COCCOC(=O)N1C(=O)[C@@]2(c3cc(C#Cc4ccc(OC)cc4)ccc31)[C@H](C(=O)N1CCN(c3ncccn3)CC1)[C@H]1C(=O)O[C@H](c3ccccc3)[C@H](c3ccccc3)N1[C@@H]2c1ccc(O)cc1	Albumin (Bos taurus) (UniProt P02769)	0.259
CC(C)N1CC=CC23O[C@@H]4C=CCOC(=O)[C@@H]4[C@H]2C(=O)N(CCO)[C@@H]3C1=O (stereo not given in full)	Albumin (Bos taurus) (UniProt P02769)	-0.0355
Cc1ccc(S[C@]2(C(=O)NCc3ccccc3)CC(=O)N(Cc3ccccc3Cl)[C@@H]2c2ccc(CO)cc2I)cc1	Albumin (Bos taurus) (UniProt P02769)	0.451
CCOC(=O)[C@H]1C[C@H]2O[C@@]23C[C@H]1C(=O)N1CCCC1[C@@H]3O[Si](C)(C)C(C)(C)C (stereo not given in full)	Albumin (Bos taurus) (UniProt P02769)	-0.505
COC(=O)[C@@]1(Cc2ccccc2)N=C(c2ccc(OCCCO)cc2)O[C@H]1c1ccccc1N=[N+]=[N-]	Albumin (Bos taurus) (UniProt P02769)	-0.541
O=C1OCCC/C=C\[C@H]2OC34C=CCN(Cn5nnc6ccccc65)C(=O)[C@H]3N(CCCCCO)C(=O)[C@@H]4C12 (stereo not given in full)	Albumin (Bos taurus) (UniProt P02769)	0.743
CCOC(=O)C[C@H]1[C@H](OC(=O)c2ccc(-c3ccccc3)cc2)[C@@H](NC(=O)Cc2ccc(OC)cc2)c2cc(OCCCO)ccc2N1C(=O)c1ccc2ccccc2n1	Albumin (Bos taurus) (UniProt P02769)	0.647
